// reported viscosity per item
- Test Conditions: 298.15 K; 81.5 kPa; Liquid; Capillary tube (Ostwald / Ubbelohde) method
Property: viscosity (mPa·s)

# Molecule, Test Value
records = [
    ("CCCO [propan-1-ol]", 1.943),
    ("CO [methanol]", 0.573),
    ("CCC(C)O (configuration not stated) [butan-2-ol]", 3.05),
    ("CCCCO [butan-1-ol]", 2.572),
    ("CCO [ethanol]", 1.093),
    ("NCCN [ethane-1,2-diamine]", 1.385),
    ("CC(C)O [propan-2-ol]", 2.067),
]

---

// reported refractive index per item
- Method Summary: refractive index (Na D-line) (dimensionless)
- Test Conditions: 298.15 K; 81.5 kPa; Liquid; Standard Abbe refractometry
Property: refractive index

# Compound, Test Value
records = [
    ("CC(C)O", 1.3745),
    ("CCC(C)O (configuration not stated)", 1.3945),
    ("CCCO", 1.3825),
    ("CCO", 1.3588),
    ("CCCCO", 1.3967),
    ("CO", 1.3263),
    ("NCCN", 1.4537),
]

---

// reported mass density per item
- Test Conditions: 298.15 K; 81.5 kPa; Liquid; Vibrating tube method
Property: mass density (kg/m3)

# Compound, Property, Test Value
data = [
    ("CCO", "mass density", 785.2),
    ("CC(C)O", "mass density", 781),
    ("CO", "mass density", 786.7),
    ("NCCN", "mass density", 892.8),
    ("CCCCO", "mass density", 806),
    ("CCC(C)O (configuration not stated)", "mass density", 802.5),
    ("CCCO", "mass density", 799.5),
]
